Value source: paper PMC6355003

B1: Drp1 (dynamin-related protein Drp1), wild type [not stated] / GST-MiD51^133-463, wild type [human] (parent complex)
chain 1: MEALIPVINKLQDVFNTVGADIIQLPQIVVVGTQSSGKSSVLESLVGRDLLPRGTGIVTRRPLILQLVHVSQEDKRKTTGEENGVEAEEWGKFLHTKNKLYTDFDEIRQEIENETERISGNNKGVSPEPIHLKIFSPNVVNLTLVDLPGMTKVPVGDQPKDIELQIRELILRFISNPNSIILAVTAANTDMATSEALKISREVDPDGRRTLAVITKLDLMDAGTDAMDVLMGRVIPVKLGIIGVVNRSQLDINNKKSVTDSIRDEYAFLQKKYPSLANRNGTKYLARTLNRLLMHHIRDCLPELKTRINVLAAQYQSLLNSYGEPVDDKSATLLQLITKFATEYCNTIEGTAKYIETSELCGGARICYIFHETFGRTLESVDPLGGLNTIDILTAIRNATGPRPALFVPEVSFELLVKRQIKRLEEPSLRCVELVHEEMQRIIQHCSNYSTQELLRFPKLHDAIVEVVTCLLRKRLPVTNEMVHNLVAIELAYINTKHPDFADACGLMNNNIEEQRRNRLARELPSAVSRDKVASGGGGVGDGVQEPTTGNWRGMLKTSKAEELLAEEKSKPIPIMPASPQKGHAVNLLDVPVPVARKLSAREQRDCEVIERLIKSYFLIVRKNIQDSVPKAVMHFLVNHVKDTLQSELVGQLYKSSLLDDLLTESEDMAQRRKEAADMLKALQGASQIIAEIRETHLW
chain 2: MSLQEKLLTYYRNRAAIPAGEQARAKQAAVDICAELRSFLRAKLPDMPLRDMYLSGSLYDDLQVVTADHIQLIVPLVLEQNLWSCIPGEDTIMNVPGFFLVRRENPEYFPRGSSYWDRCVVGGYLSPKTVADTFEKVVAGSINWPAIGSLLDYVIRPAPPPEALTLEVQYERDKHLFIDFLPSVTLGDTVLVAKPHRLAQYDNLWRLSLRPAETARLRALDQADSGCRSLCLKILKAICKSTPALGHLTASQLTNVILHLAQEEADWSPDMLADRFLQALRGLISYLEAGVLPSALNPKVNLFAELTPEEIDELGYTLYCSLSEPEVLLQT

# Variants of: B1
# Test details: GST pull-down, SDS-PAGE band quantification; parent: 0.3; read off a plot
Measured property: response

INSERT INTO measurements (mutation_name, endpoint_result) VALUES
  ('chain 2 E107R', '~0.42 molar ratio'),
  ('chain 2 R102E', '~0.082 molar ratio'),
  ('chain 2 F109A', '~0.055 molar ratio'),
  ('chain 2 S285Q', '~0.33 molar ratio'),
  ('chain 2 R111E', '~0.082 molar ratio'),
  ('chain 2 Y108A', '~0.058 molar ratio');
